Target: Lymphocyte antigen 6K (Homo sapiens)
Sequence (whole entry): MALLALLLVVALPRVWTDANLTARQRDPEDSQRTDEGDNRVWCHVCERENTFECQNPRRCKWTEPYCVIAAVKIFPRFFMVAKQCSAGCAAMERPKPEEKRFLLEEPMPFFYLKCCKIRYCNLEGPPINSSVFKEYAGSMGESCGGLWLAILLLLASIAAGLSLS
Experiment: Binding affinity to human wild type LY6K at 1.25 to 5 uM measured upto 250 sec by SPR assay
Settings: dose 1.25-5 µM
Calls of active or inactive are those of the source. No cut-off for these calls is given here.
QUANTITY: Activity

| SMILES_STR | MEASUREMENT |
| --- | --- |
| CCS(=O)(=O)Nc1ccc(Nc2c3ccccc3nc3cc(NC(=O)CCCC[C@@H]4SC[C@@H]5NC(=O)N[C@@H]54)ccc23)c(OC)c1 | Active |
| CCS(=O)(=O)Nc1ccc(Nc2c3ccccc3nc3cc(C(=O)OCc4ccccc4)ccc23)c(OC)c1 | Active |
| CCS(=O)(=O)Nc1ccc(Nc2c3ccccc3nc3cc([N+](=O)[O-])ccc23)c(OC)c1 | Dose-Dependent Effect |
| CCS(=O)(=O)Nc1ccc(Nc2c3ccccc3nc3ccccc23)c(OC)c1 | Dose-Dependent Effect |
| CCS(=O)(=O)Nc1ccc(Nc2c3ccccc3nc3cc(C(=O)NCCCCCCNc4ccc([N+](=O)[O-])c5nonc45)ccc23)c(OC)c1 | Active |
